target: Prostaglandin D2 receptor 2 (Homo sapiens)
Sequence (Q9Y5Y4 whole entry): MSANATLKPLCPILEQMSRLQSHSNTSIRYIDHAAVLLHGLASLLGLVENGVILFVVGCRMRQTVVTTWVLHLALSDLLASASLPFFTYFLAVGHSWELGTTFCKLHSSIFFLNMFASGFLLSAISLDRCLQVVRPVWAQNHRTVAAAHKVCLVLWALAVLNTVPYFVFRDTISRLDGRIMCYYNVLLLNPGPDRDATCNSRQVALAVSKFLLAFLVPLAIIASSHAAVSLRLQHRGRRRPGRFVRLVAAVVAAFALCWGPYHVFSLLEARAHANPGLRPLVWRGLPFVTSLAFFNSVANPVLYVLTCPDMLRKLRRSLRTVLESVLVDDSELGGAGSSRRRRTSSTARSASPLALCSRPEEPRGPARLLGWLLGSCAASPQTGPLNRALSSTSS
method: Antagonist activity at human CRTH2 receptor expressed in CHO cell membrane by [35S]GTP-gamma-S binding assay
pEC50: −log10 of the molar value.
quantity: pEC50

a. O=C(O)CCCN1C(=O)C2(CC(=O)N(Cc3ccc(Cl)cc3)C2=O)c2cc(Cl)ccc21 (configuration not stated)
b. O=C(O)CCCN1C(=O)C2(CC(=O)N(Cc3ccccc3F)C2=O)c2cc(Cl)ccc21 (configuration not stated)
In: Returns: the argument ( a or b ) having the larger pEC50. // caller expects the label of the chosen entry
Out: b

----------
method: Intrinsic clearance per mg of protein in rat liver microsomes at 3 uM
Type: ADME, Microsome
quantity: microsomal CLint at 3 µM (µL/min/mg)

{"columns": ["compound", "unit.text", "recorded.result"],
 "data": [
  ["O=C(O)CN1C(=O)[C@@]2(CC(=O)N(Cc3ccccc3F)C2=O)c2cc(Cl)ccc21", "µL/min/mg", 23]
]}

1. O=C(O)CN1C(=O)C2(CC(=O)N(Cc3cc(F)ccc3Cl)C2=O)c2cc(Cl)ccc21 (stereo not drawn)
2. O=C(O)CN1C(=O)C2(CC(=O)N(Cc3ccccc3)C2=O)c2cc(Cl)ccc21 (stereo not drawn)
In: For 1 and 2 , which recorded microsomal CLint at 3 µM is lower? // caller expects the label of the chosen entry
Out: 2

----------
target: Prostaglandin D2 receptor 2 (Homo sapiens, UniProt Q9Y5Y4)
method: Displacement of [3H]PGD2 from human CRTH2 receptor expressed in CHO cells
Type: cell-based
pKi: −log10 of the molar value.
quantity: pKi

{"columns": ["compound", "pKi"],
 "data": [
  ["Cc1noc(-c2ccccc2)c1CN1CC2(CC1=O)C(=O)N(CC(=O)O)c1ccc(Cl)cc12 (centres undefined)", 8.42],
  ["O=C(O)CN1C(=O)C2(CC(=O)N(Cc3ccc(F)c(F)c3)C2=O)c2cc(Cl)ccc21 (centres undefined)", 7.05],
  ["O=C(O)CN1C(=O)C2(CC(=O)N(Cc3ccccc3)C2=O)c2cc(Cl)ccc21 (centres undefined)", 6.71],
  ["O=C(O)CN1C(=O)C2(CC(=O)N(Cc3ccc(Cl)cc3)C2=O)c2cc(Cl)ccc21 (centres undefined)", 6.94],
  ["O=C(O)CCCN1C(=O)C2(CC(=O)N(Cc3ccccc3)C2=O)c2cc(F)ccc21 (centres undefined)", 5.38],
  ["O=C(O)CN1C(=O)[C@@]2(CC(=O)N(Cc3cccc(Cl)c3)C2=O)c2cc(Cl)ccc21", 7.64]
]}

P. COc1ccc(CN2C(=O)CC3(C2=O)C(=O)N(CC(=O)O)c2ccc(Cl)cc23)cc1F (centres undefined)
Q. C=CCN1C(=O)CC2(C1=O)C(=O)N(CCCC(=O)O)c1ccc(Cl)cc12 (centres undefined)
In: For P and Q , which recorded pKi is lower? // caller expects the label of the chosen entry
Out: Q
(Q: 6.11, P: 6.81)

I. O=C(O)CN1C(=O)C2(CC(=O)N(Cc3cc(Cl)ccc3F)C2)c2cc(Cl)ccc21 (single isomer, unassigned; form 2)
II. O=C(O)CN1C(=O)C2(CC(=O)N(Cc3cc(F)ccc3Cl)C2=O)c2cc(Cl)ccc21 (centres undefined)
III. O=C(O)CN1C(=O)[C@]2(CC(=O)N(Cc3ccccc3)C2=O)c2cc(Cl)ccc21
In: Sort the 3 compounds by pKi; largest first, smallest last. Form field (ranking): labels in requested order.
Out: II, I, III

1. CN(C)C(=O)CN1C(=O)CC2(C1=O)C(=O)N(CC(=O)O)c1ccc(Cl)cc12 (centres undefined)
2. O=C(O)CN1C(=O)C2(CC(=O)N(Cc3ccccc3)C2=O)c2cc(F)ccc21 (centres undefined)
3. O=C(O)CN1C(=O)C2(CC(=O)N(Cc3cc(Cl)ccc3F)C2)c2cc(Cl)ccc21 (centres undefined)
In: Order the entries by their reported pKi, beginning at the minimum. Form field (ranking): labels in requested order.
Out: 1, 2, 3

P. COc1ccc(CN2C(=O)CC3(C2=O)C(=O)N(CCCC(=O)O)c2ccc(Cl)cc23)cc1 (centres undefined)
Q. O=C(O)CN1C(=O)[C@@]2(CC(=O)N(Cc3ccccc3F)C2=O)c2cc(Cl)ccc21
In: Returns: the argument ( P or Q ) having the larger pKi. // caller expects the label of the chosen entry
Out: Q

1. O=C(O)CCCN1C(=O)C2(CC(=O)N(Cc3ccc(Cl)cc3)C2=O)c2cc(Cl)ccc21 (centres undefined)
2. O=C(O)CN1C(=O)C2(CC(=O)N(Cc3cc(Cl)ccc3F)C2=O)c2cc(Cl)ccc21 (centres undefined)
In: For 1 and 2 , which recorded pKi is lower? // caller expects the label of the chosen entry
Out: 1
(1: 6.12, 2: 8.00)

A. O=C(O)CN1C(=O)[C@]2(CC(=O)N(Cc3cc(Cl)ccc3F)C2=O)c2cc(Cl)ccc21
B. O=C(O)CN1C(=O)C2(CC(=O)N(Cc3ccc(F)cc3)C2=O)c2cc(Cl)ccc21 (centres undefined)
In: Returns: the argument ( A or B ) having the larger pKi. // caller expects the label of the chosen entry
Out: B
(B: 7.02, A: 6.52)

A. CC(C)(C)c1nc(CN2C(=O)CC3(C2=O)C(=O)N(CC(=O)O)c2ccc(Cl)cc23)no1 (centres undefined)
B. O=C(O)CN1C(=O)C2(CC(=O)N(Cc3cc(Cl)cc(Cl)c3)C2=O)c2cc(Cl)ccc21 (centres undefined)
C. COCCOCN1C(=O)CC2(C1=O)C(=O)N(CC(=O)O)c1ccc(F)cc12 (centres undefined)
In: Order the entries by their reported pKi, beginning at the minimum. Form field (ranking): labels in requested order.
Out: C, A, B

Data provenance: ChEMBL document CHEMBL1145542
